- TARGET: UniProtKB P40238
- Sequence (P40238 26-635): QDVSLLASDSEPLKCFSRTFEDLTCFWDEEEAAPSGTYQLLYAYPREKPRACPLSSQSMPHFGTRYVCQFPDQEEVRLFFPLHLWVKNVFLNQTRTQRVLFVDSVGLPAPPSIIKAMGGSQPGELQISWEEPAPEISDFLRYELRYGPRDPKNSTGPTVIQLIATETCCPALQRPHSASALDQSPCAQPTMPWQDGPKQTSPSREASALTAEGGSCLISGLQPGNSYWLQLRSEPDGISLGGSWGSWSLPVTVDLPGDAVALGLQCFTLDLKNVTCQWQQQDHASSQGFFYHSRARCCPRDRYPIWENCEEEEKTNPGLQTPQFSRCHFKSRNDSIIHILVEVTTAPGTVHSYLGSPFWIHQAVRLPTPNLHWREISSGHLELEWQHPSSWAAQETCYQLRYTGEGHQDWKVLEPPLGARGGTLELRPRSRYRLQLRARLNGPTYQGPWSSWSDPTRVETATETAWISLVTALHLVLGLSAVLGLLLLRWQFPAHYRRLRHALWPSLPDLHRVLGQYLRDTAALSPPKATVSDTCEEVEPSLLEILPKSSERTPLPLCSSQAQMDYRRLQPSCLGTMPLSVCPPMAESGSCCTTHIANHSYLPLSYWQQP
- ASSAY PROTOCOL: TPO receptor responsiveness: proliferation of TPO-dependent BaF/hTPOR cells (WST-1)
- MEASUREMENT CONTEXT: 20 hours culture, WST-1 absorption at 450 nm, concentration exhibiting half-maximum responsiveness of human TPO, read-out: ED50 (the source's name)
MEASURED QUANTITY: log10 of EC50 (log10 of the value in nM)
In plain terms, each number is the log10 of measured EC50 in nM.

Please review the entries below; each comes with its answer.
smiles_structure=CCCCCC[C@@H](OC)c1cccc(-c2csc(NC(=O)c3cc(Cl)c(/C=C(\C)C(=O)O)c(Cl)c3)n2)c1OC value_measured=0.49
smiles_structure=CCCO[C@H](c1cccc(-c2csc(NC(=O)c3cc(Cl)c(/C=C(\C)C(=O)O)c(Cl)c3)n2)c1OC)C(C)(C)C value_measured=-1.05
smiles_structure=CCCCCCO[C@H](C)c1cccc(-c2csc(NC(=O)c3cc(Cl)c(/C=C(\C)C(=O)O)c(Cl)c3)n2)c1OC value_measured=0.15

Answer for every listed entry: what is its log10 of EC50? The entries follow.
1. CCCCCC[C@H](OC)c1cccc(-c2csc(NC(=O)c3cc(Cl)c(/C=C(\C)C(=O)O)c(Cl)c3)n2)c1OC
2. CCCCCCO[C@@H](C)c1cccc(-c2csc(NC(=O)c3cc(Cl)c(/C=C(\C)C(=O)O)c(Cl)c3)n2)c1OC

A.
0.32
0.04
